Source of measurements: patent US20220402980A1

Biological target: T1, αvβ8 integrin (purified, coated on microtiter plates) (UniProt P06756 31-992; P26012 43-684)
T1 chain 1: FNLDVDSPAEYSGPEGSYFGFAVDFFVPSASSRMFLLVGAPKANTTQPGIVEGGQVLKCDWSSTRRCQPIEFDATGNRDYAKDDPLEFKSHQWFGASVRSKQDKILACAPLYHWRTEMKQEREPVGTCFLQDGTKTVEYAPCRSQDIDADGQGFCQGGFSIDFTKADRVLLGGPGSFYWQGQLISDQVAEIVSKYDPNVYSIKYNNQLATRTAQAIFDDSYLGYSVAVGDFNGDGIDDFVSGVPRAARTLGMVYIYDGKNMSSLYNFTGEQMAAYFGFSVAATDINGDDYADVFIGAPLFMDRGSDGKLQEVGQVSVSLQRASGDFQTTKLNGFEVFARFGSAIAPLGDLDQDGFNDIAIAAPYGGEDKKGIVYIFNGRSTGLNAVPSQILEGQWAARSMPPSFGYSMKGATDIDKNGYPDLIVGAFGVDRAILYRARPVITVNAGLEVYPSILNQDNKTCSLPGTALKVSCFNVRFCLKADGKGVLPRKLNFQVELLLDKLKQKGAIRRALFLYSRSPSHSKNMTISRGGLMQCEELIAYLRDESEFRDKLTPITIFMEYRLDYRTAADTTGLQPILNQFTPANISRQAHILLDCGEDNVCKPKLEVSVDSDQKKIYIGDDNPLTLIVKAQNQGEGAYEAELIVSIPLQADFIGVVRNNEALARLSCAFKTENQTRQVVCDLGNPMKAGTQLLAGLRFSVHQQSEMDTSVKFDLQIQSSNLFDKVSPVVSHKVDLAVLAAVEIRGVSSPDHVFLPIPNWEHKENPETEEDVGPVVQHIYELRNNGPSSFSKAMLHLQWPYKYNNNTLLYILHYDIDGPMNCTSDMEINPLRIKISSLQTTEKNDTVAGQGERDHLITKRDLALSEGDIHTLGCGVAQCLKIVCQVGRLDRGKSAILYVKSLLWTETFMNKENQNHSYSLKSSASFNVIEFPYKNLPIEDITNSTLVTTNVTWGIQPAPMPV
T1 chain 2: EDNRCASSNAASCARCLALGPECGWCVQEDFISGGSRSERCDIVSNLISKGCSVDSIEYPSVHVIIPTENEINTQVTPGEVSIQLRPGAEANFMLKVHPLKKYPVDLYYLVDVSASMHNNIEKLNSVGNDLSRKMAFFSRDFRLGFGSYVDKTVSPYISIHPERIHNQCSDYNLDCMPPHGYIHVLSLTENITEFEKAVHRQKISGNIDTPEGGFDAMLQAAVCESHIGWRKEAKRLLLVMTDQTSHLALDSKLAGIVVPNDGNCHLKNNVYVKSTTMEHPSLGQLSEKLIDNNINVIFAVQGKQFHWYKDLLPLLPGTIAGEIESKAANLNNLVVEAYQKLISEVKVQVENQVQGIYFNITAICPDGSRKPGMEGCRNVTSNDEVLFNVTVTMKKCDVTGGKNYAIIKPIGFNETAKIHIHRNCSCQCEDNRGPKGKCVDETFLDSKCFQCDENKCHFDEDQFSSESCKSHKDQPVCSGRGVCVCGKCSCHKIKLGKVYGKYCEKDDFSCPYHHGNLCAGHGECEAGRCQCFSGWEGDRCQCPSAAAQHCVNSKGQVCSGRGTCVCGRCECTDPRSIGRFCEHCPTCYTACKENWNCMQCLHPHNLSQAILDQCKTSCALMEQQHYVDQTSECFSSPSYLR
Bridges are numbered along the chain shown (N, C = ends). Where no end group is shown, it is not given here. [ ]: non-standard residue; d: D form. Lys(N3) = [N-]=[N+]=NCCCC[C@H](N)C(=O)O; Pra = C#CC[C@H](N)C(=O)O
Property label: EC50 (nM)
Kindly answer with a numeric value in nM, unit omitted.

I'd like to know its EC50. The binder in question is C(IRDye 800CW maleimide)FETLRGDLRILSILR[Pra]QNL[Lys(N3)]KELQD-NH2 (triazole 17-21) [5a-IRDye (peptide 5a coupled via Cys to maleimide-IRDye 800CW)]
1.9
